RUN DESCRIPTION: Example D: HTL0018318 plasma pharmacokinetics
Assay type: in vivo, human
MEASUREMENT PARAMETERS: human, plasma, 5 mg, visit day 11; read-out: Cmax, arithmetic mean ± SD
READOUT TYPE: Cmax (ng/mL)
The reply should be a number in ng/mL, with the unit left off.

Inquiry: Data request, read-out Cmax, for CCOC(=O)N1C2CCC1CC(N1CCC3(CC1)CNC(=O)C3)C2 (stereo not shown)
Reply text: 48.3

* * *

RUN DESCRIPTION: Example D: HTL0018318 plasma pharmacokinetics
Format: in vivo, human
MEASUREMENT PARAMETERS: human, plasma; 5 mg, visit day 28; read-out: Ctrough, arithmetic mean ± SD
READOUT TYPE: concentration at 28 day (ng/mL)
The reply should be a number in ng/mL, with the unit left off.

Inquiry: Data request, read-out concentration at 28 day, for CCOC(=O)N1C2CCC1CC(N1CCC3(CC1)CNC(=O)C3)C2 (stereo not shown) [HTL0018318]
Reply text: 14.2

* * *

RUN DESCRIPTION: Example C: HTL0018318 plasma and urine pharmacokinetics
Assay type: in vivo, human
MEASUREMENT PARAMETERS: human, plasma, oral, 25 mg, 15 and 25 mg, with and without donepezil; read-out: half-life following the fifth dose, range over groups
READOUT TYPE: half-life

Inquiry: Data request, read-out half-life, for CCOC(=O)N1C2CCC1CC(N1CCC3(CC1)CNC(=O)C3)C2 (stereo not shown)
Reply text: 10.7 to 13.8 h

* * *

RUN DESCRIPTION: Example C: HTL0018318 plasma and urine pharmacokinetics
Assay type: in vivo, human
MEASUREMENT PARAMETERS: human, urine and plasma, oral, 15 mg + DPZ, 1st dose
READOUT TYPE: CL renal (mL/min)
The reply should be a number in mL/min, with the unit left off.

Inquiry: Data request, read-out CL renal, for CCOC(=O)N1C2CCC1CC(N1CCC3(CC1)CNC(=O)C3)C2 (stereo not shown) [HTL0018318]
Reply text: 109

* * *

RUN DESCRIPTION: Example D: HTL0018318 plasma pharmacokinetics
Type: in vivo, human
MEASUREMENT PARAMETERS: human, plasma, 25 mg, visit day 28; read-out: Cmax, arithmetic mean ± SD
READOUT TYPE: Cmax
Value and unit, in that order.

Inquiry: Data request, read-out Cmax, for CCOC(=O)N1C2CCC1CC(N1CCC3(CC1)CNC(=O)C3)C2 (stereo not shown)
Reply text: 224 ng/mL

* * *

RUN DESCRIPTION: Example D: HTL0018318 plasma pharmacokinetics
Format: in vivo, human
MEASUREMENT PARAMETERS: human, plasma, 25 mg, visit day 16; read-out: AUC0-4 h, arithmetic mean ± SD
READOUT TYPE: AUC(0-t) (ng·h/mL)
The reply should be a number in ng·h/mL, with the unit left off.

Inquiry: Data request, read-out AUC(0-t), for CCOC(=O)N1C2CCC1CC(N1CCC3(CC1)CNC(=O)C3)C2 (stereo not shown)
Reply text: 728

* * *

RUN DESCRIPTION: Example D: HTL0018318 plasma pharmacokinetics
Assay type: in vivo, human
MEASUREMENT PARAMETERS: human, plasma; 10 mg, visit day 28, n = 1; read-out: Ctrough
Experimental: Selected plasma pharmacokinetics (PK) parameters for HTL0018318 were estimated during the period over which PD assessments were made. Details of assessment times for all endpoints are described below. Pharmacokinetics (PK) were evaluated via blood samples, for determination of HTL0018318 concentrations in plasma. […] Bioanalysis used a fully validated method and all samples were analysed within the established period of storage stability. […]
READOUT TYPE: concentration at 28 day (ng/mL)
The reply should be a number in ng/mL, with the unit left off.

Inquiry: Data request, read-out concentration at 28 day, for CCOC(=O)N1C2CCC1CC(N1CCC3(CC1)CNC(=O)C3)C2 (stereo not shown) [HTL0018318]
Reply text: 6.41

* * *

RUN DESCRIPTION: Example C: HTL0018318 plasma and urine pharmacokinetics
Assay type: in vivo, human
MEASUREMENT PARAMETERS: human, plasma, oral, 25 mg, 25 mg only, 1st dose; read-out: Tmax (median)
READOUT TYPE: Tmax (h)
The reply should be a number in h, with the unit left off.

Inquiry: Data request, read-out Tmax, for CCOC(=O)N1C2CCC1CC(N1CCC3(CC1)CNC(=O)C3)C2 (stereo not shown) [HTL0018318]
Reply text: 1.75

* * *

RUN DESCRIPTION: Example C: HTL0018318 plasma and urine pharmacokinetics
Format: in vivo, human
MEASUREMENT PARAMETERS: human, plasma, oral, 25 mg + DPZ, 1st dose; Tau = 24 hrs; read-out: AUC0-tau (mean)
READOUT TYPE: AUC (ng·h/mL)
The reply should be a number in ng·h/mL, with the unit left off.

Inquiry: Data request, read-out AUC, for CCOC(=O)N1C2CCC1CC(N1CCC3(CC1)CNC(=O)C3)C2 (stereo not shown)
Reply text: 1410

* * *

RUN DESCRIPTION: Example C: HTL0018318 plasma and urine pharmacokinetics
Format: in vivo, human
MEASUREMENT PARAMETERS: human, plasma, oral, 25 mg, 25 mg only, 1st dose; Tau = 24 hrs; read-out: AUC0-tau (mean)
READOUT TYPE: AUC (ng·h/mL)
The reply should be a number in ng·h/mL, with the unit left off.

Inquiry: Data request, read-out AUC, for CCOC(=O)N1C2CCC1CC(N1CCC3(CC1)CNC(=O)C3)C2 (stereo not shown)
Reply text: 1370

* * *

RUN DESCRIPTION: Example C: HTL0018318 plasma and urine pharmacokinetics
Assay type: in vivo, human
MEASUREMENT PARAMETERS: human, plasma, oral, 15 mg, 15 mg only, 5th dose
READOUT TYPE: Cmax (ng/mL)
The reply should be a number in ng/mL, with the unit left off.

Inquiry: Data request, read-out Cmax, for CCOC(=O)N1C2CCC1CC(N1CCC3(CC1)CNC(=O)C3)C2 (stereo not shown)
Reply text: 103

* * *

RUN DESCRIPTION: Example C: HTL0018318 plasma and urine pharmacokinetics
Type: in vivo, human
MEASUREMENT PARAMETERS: human, plasma, oral, 15 mg, 15 mg only, 1st dose; read-out: Tmax (median)
Procedure: On the days between, only pre-dose PK samples were taken. The last PK blood sample was taken between 7-14 days after the last HTL0018318 dose (Table 7). For these calculations, data of 15 mg and 25 mg HTL0018318 were grouped together. […] All PK analyses were performed in Phoenix 64 build 6.4.0.768 using WinNonlin 6.4. Statistical analysis was performed in R version 3.3.1 (2016-06-21) Copyright (C) 2016 The R Foundation for Statistical Computing (Platform: x86_64-w64-mingw32/x64 64-bit).
READOUT TYPE: Tmax (h)
The reply should be a number in h, with the unit left off.

Inquiry: Data request, read-out Tmax, for CCOC(=O)N1C2CCC1CC(N1CCC3(CC1)CNC(=O)C3)C2 (stereo not shown)
Reply text: 2

* * *

RUN DESCRIPTION: Example C: HTL0018318 plasma and urine pharmacokinetics
Type: in vivo, human
MEASUREMENT PARAMETERS: human, plasma, oral, 25 mg + DPZ, 1st dose; read-out: Half-life (mean) (converted)
Procedure: On the days between, only pre-dose PK samples were taken. The last PK blood sample was taken between 7-14 days after the last HTL0018318 dose (Table 7). For these calculations, data of 15 mg and 25 mg HTL0018318 were grouped together. […] All PK analyses were performed in Phoenix 64 build 6.4.0.768 using WinNonlin 6.4. Statistical analysis was performed in R version 3.3.1 (2016-06-21) Copyright (C) 2016 The R Foundation for Statistical Computing (Platform: x86_64-w64-mingw32/x64 64-bit).
READOUT TYPE: half-life (h)
The reply should be a number in h, with the unit left off.

Inquiry: Data request, read-out half-life, for CCOC(=O)N1C2CCC1CC(N1CCC3(CC1)CNC(=O)C3)C2 (stereo not shown) [HTL0018318]
Reply text: 8.73

* * *

RUN DESCRIPTION: Example D: HTL0018318 plasma pharmacokinetics
Type: in vivo, human
MEASUREMENT PARAMETERS: human, plasma, 15 mg, visit day 6; read-out: Cmax, arithmetic mean ± SD
READOUT TYPE: Cmax (ng/mL)
The reply should be a number in ng/mL, with the unit left off.

Inquiry: Data request, read-out Cmax, for CCOC(=O)N1C2CCC1CC(N1CCC3(CC1)CNC(=O)C3)C2 (stereo not shown) [HTL0018318]
Reply text: 106

* * *

RUN DESCRIPTION: Example D: HTL0018318 plasma pharmacokinetics
Type: in vivo, human
MEASUREMENT PARAMETERS: human, plasma, 10 mg, visit day 16, n = 1; read-out: AUC0-4 h
READOUT TYPE: AUC(0-t) (ng·h/mL)
The reply should be a number in ng·h/mL, with the unit left off.

Inquiry: Data request, read-out AUC(0-t), for CCOC(=O)N1C2CCC1CC(N1CCC3(CC1)CNC(=O)C3)C2 (stereo not shown) [HTL0018318]
Reply text: 302
